conditions: 298.15 K; 101.33 kPa; Liquid
QUANTITY KIND: mass density (kg/m3)
Provide only the numeric value, understood in kg/m3.

Supply recorded mass density for CCCCCCC here.
679.627

Supply recorded mass density for Cc1ccccc1N here.
994.343

Supply recorded mass density for CCCCCCCCCCCC here.
741.54

Supply recorded mass density for CCCCCCCC here.
698.636

Supply recorded mass density for CCCCCCCCC here.
714.064

Supply recorded mass density for CCCCCCCCCC here.
726.412
